target: NLRP3 (Homo sapiens); assay: THP-1 cells pyroptosis assay; type: cell-based; set-up: Seed THP-1 cells (25,000 cells/well) containing 1.0 μg/ml LPS in 40 μl of RPMI medium; host or cells: THP-1 cells, LPS-primed, nigericin-stimulated; details: THP-1 cells with 1.0 μg/ml LPS, compound 3 hours, nigericin 5 μM 1 hr, resazurin readout
Sequence (Q96P20 whole entry): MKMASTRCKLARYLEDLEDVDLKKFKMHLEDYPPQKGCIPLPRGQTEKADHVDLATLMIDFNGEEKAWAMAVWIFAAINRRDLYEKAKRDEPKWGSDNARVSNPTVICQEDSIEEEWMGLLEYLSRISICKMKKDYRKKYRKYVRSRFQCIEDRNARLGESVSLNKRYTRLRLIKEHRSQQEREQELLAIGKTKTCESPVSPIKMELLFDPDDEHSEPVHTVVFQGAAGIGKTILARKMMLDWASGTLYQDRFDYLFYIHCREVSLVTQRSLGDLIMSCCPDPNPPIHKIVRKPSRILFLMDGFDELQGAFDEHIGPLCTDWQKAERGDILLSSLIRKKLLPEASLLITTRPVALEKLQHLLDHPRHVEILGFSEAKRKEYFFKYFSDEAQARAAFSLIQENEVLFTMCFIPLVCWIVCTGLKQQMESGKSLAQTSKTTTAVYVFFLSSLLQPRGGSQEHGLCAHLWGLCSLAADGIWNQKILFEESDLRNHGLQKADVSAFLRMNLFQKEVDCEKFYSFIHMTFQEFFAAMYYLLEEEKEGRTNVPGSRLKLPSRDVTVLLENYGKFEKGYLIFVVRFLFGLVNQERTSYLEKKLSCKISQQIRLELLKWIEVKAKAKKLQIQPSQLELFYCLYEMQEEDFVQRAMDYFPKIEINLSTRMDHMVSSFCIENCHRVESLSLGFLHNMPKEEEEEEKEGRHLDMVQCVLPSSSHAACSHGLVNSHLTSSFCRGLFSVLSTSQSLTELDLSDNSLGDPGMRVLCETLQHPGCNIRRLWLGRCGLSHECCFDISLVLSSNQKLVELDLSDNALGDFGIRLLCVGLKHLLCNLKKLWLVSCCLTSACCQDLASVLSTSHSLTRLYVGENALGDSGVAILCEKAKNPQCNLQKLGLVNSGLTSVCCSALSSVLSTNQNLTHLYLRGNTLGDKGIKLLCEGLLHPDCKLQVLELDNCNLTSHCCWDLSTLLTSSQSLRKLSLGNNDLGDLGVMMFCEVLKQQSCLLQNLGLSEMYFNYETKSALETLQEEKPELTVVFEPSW
Rule: IC50 below 60 nM gives yes (1). Equal to or above 60 nM gives no (0).

Lab log: compare recorded IC50 with 60 nM; is it strictly lower for Cc1cc(C(F)(F)F)cc(O)c1-c1ccc2oc(N3Cc4cncnc4C3)nc2n1 ? yes (1)

Lab log: compare recorded IC50 with 60 nM; is it strictly lower for Cc1cc(Cl)cc(O)c1-c1ccc2oc(N3Cc4c[nH]nc4C3)nc2n1 ? yes (1)

Lab log: compare recorded IC50 with 60 nM; is it strictly lower for Cc1cc(Cl)cc(O)c1-c1ccc2oc(N3Cc4cc(=O)[nH]nc4C3)nc2n1 ? yes (1)

Lab log: compare recorded IC50 with 60 nM; is it strictly lower for Cc1cc(C#N)cc(O)c1-c1ccc2oc(N3Cc4ccccc4C3)nc2n1 ? no (0)

Lab log: compare recorded IC50 with 60 nM; is it strictly lower for Cc1cc(Cl)cc(O)c1-c1ccc2oc(N3Cc4c[nH]c(=O)cc4C3)nc2n1 ? yes (1)

Lab log: compare recorded IC50 with 60 nM; is it strictly lower for Cc1cc(C(F)(F)F)cc(O)c1-c1ccc2oc(N3Cc4cc(=O)n(CCO)cc4C3)nc2n1 ? yes (1)

Lab log: compare recorded IC50 with 60 nM; is it strictly lower for Cc1cc(Cl)cc(O)c1-c1cnc2oc(N3Cc4ccncc4C3)nc2n1 ? yes (1)

Lab log: compare recorded IC50 with 60 nM; is it strictly lower for Cc1cc(C(F)(F)F)cc(O)c1-c1ccc2oc(N3CCc4ncncc4C3)nc2n1 ? yes (1)

Lab log: compare recorded IC50 with 60 nM; is it strictly lower for Cc1cc(C(F)(F)F)cc(O)c1-c1ccc2oc(N3Cc4ccc(=O)[nH]c4C3)nc2n1 ? yes (1)

Lab log: compare recorded IC50 with 60 nM; is it strictly lower for Cc1cc(Cl)cc(O)c1-c1ccc2oc(N3CCc4[nH]c(=O)ccc4C3)nc2n1 ? no (0)

Lab log: compare recorded IC50 with 60 nM; is it strictly lower for Cc1cc(C(F)(F)F)cc(O)c1-c1ccc2oc(N3Cc4[nH]c(=O)[nH]c(=O)c4C3)nc2n1 ? no (0)
